Reference source for all entries: patent US20250170132A1

# MEASUREMENT DESCRIPTION: Approximate solubility estimation in 24 solvents
# Type: physicochemical
# CONDITION SUMMARY: organic solvent or mixture, thermodynamic from solid; Anisole, RT
QUANTITY MEASURED: solubility

# lookup: solubility of CCN(C(=O)c1cc(F)ccc1Oc1cncnc1N1CC2(CCN(C[C@H]3CC[C@H](NS(=O)(=O)CC)CC3)CC2)C1)C(C)C [Compound A monocitrate monohydrate]
< 3000 µg/mL

----------
# MEASUREMENT DESCRIPTION: Pharmacokinetics in patients with relapsed or refractory acute leukemia
# Format: in vivo, human
# CONDITION SUMMARY: human, plasma, oral, 163 mg, 163 mg twice daily with strong CYP3A4 inhibitors; steady-state; geometric mean; patients; read-out: Cmax
QUANTITY MEASURED: Cmax (ng/mL)
Response body: numeric value in ng/mL, unit text excluded.

Reported Cmax for CCN(C(=O)c1cc(F)ccc1Oc1cncnc1N1CC2(CCN(C[C@H]3CC[C@H](NS(=O)(=O)CC)CC3)CC2)C1)C(C)C : what is it?
3220

----------
# MEASUREMENT DESCRIPTION: Pharmacokinetics in patients with relapsed or refractory acute leukemia
# Format: in vivo, human
# CONDITION SUMMARY: human, plasma, oral, 276 mg, 276 mg twice daily without strong CYP3A4 inhibitors; steady-state; geometric mean; patients; read-out: Cmax
QUANTITY MEASURED: Cmax (ng/mL)
Express your answer in ng/mL, writing the number without its unit.

Quick one: Cmax for CCN(C(=O)c1cc(F)ccc1Oc1cncnc1N1CC2(CCN(C[C@H]3CC[C@H](NS(=O)(=O)CC)CC3)CC2)C1)C(C)C ?
2050

----------
# MEASUREMENT DESCRIPTION: Approximate solubility estimation in 24 solvents
# Format: physicochemical
# CONDITION SUMMARY: organic solvent or mixture, thermodynamic from solid; Propylene glycol, heated for few seconds using heat gun
QUANTITY MEASURED: solubility

Requested field: solubility. Item: CCN(C(=O)c1cc(F)ccc1Oc1cncnc1N1CC2(CCN(C[C@H]3CC[C@H](NS(=O)(=O)CC)CC3)CC2)C1)C(C)C [Compound A monocitrate monohydrate]
22.2 to 27.8 mg/mL

----------
# MEASUREMENT DESCRIPTION: Approximate solubility estimation in 24 solvents
# Type: physicochemical
# CONDITION SUMMARY: organic solvent or mixture, thermodynamic from solid; DMF, RT
QUANTITY MEASURED: solubility

# get_value(readout='solubility', item= CCN(C(=O)c1cc(F)ccc1Oc1cncnc1N1CC2(CCN(C[C@H]3CC[C@H](NS(=O)(=O)CC)CC3)CC2)C1)C(C)C [Compound A monocitrate monohydrate] )
80 to 160 mg/mL

----------
# MEASUREMENT DESCRIPTION: Approximate solubility estimation in 24 solvents
# Assay type: physicochemical
# CONDITION SUMMARY: organic solvent or mixture, thermodynamic from solid; THF, RT
# Protocol: About 10 mg of Compound A monocitrate monohydrate was weighed into a 4.0 mL vial and 25 μL of solvent was added at RT. The solution was shaken and stirred. If no clear solution was obtained, another 25 μL was added and this was repeated until 4.0 mL solvent is added.
QUANTITY MEASURED: solubility

Suppose we examine the compound CCN(C(=O)c1cc(F)ccc1Oc1cncnc1N1CC2(CCN(C[C@H]3CC[C@H](NS(=O)(=O)CC)CC3)CC2)C1)C(C)C [Compound A monocitrate monohydrate] ; what solubility value has been reported?
< 2000 µg/mL
